Ref: patent US6476059B1

Documented melting point across a set of compounds
Kindly provide the numeric value in °C only, without the unit symbol.

// field: melting point; key: O=CNc1nc2c(s1)Cc1cc(Cl)ccc1-2 [Example 6] ; value = 295

Measured melting point, CNc1nc2c(s1)Cc1cc(-c3cccnc3)ccc1-2.Cl [Example 26] : 225

// Cc1cccc(Oc2ccc3c(c2)Cc2sc(N)nc2-3)c1.Cl [Example 27] : melting point value = 174

The reported melting point of the compound N=C(Nc1ccccc1)Nc1nc2c(s1)Cc1cc(Cl)ccc1-2 [Example 7] was 210

The reported value for N#CNc1nc2c(s1)Cc1cc(Cl)ccc1-2 [Example 4] in terms of melting point is 225

Recorded melting point (compound CNc1nc2c(s1)Cc1cc(OCC(F)(F)C(F)(F)F)ccc1-2.Cl [Example 18] ): 258
